B1: TMEM175 (parent)
chain: QTSAFARQPRDELERVRVSCTIIF

Variants of: B1
Experiment: protein stability index of a GFP-peptide fusion (GPS, HEK-293T) (PSI 1-6); higher = more stable;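 note: lentivirally expressed fusions sorted by FACS into six bins by GFP to DsRed ratio, PSI derived from sequencing read proportions per bin multiplied by bin number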
Settings: c terminus: a fixed tail appended
measurement.name: protein stability index
Answer using only a numeral; do not append any unit.

{"columns": ["sequence", "protein stability index"],
 "data": [
  ["QTSAFADQPRDELERVRVSCTIIF [R7D]", 2.01],
  ["QTSAFARQPRDESERVRVSCTIIF [L13S]", 2],
  ["QWSAFARQPRDELERVRVSCTIIF [T2W]", 3.26],
  ["QTSAHARQPRDELERVRVSCTIIF [F5H]", 1.48],
  ["QTSAFARQPRDERERVRVSCTIIF [L13R]", 2.76],
  ["QTSYFARQPRDELERVRVSCTIIF [A4Y]", 1.46],
  ["QTSAFARQPRDELRRVRVSCTIIF [E14R]", 2.03],
  ["QTSAFWRQPRDELERVRVSCTIIF [A6W]", 2.34],
  ["QTSAFARQPRDEYERVRVSCTIIF [L13Y]", 4.09],
  ["QTSAFARQPRDELERVRVSPTIIF [C20P]", 1.78]
]}

The value of protein stability index measured for the variant QTSAFARQPRDDLERVRVSCTIIF [E12D] turned out to be 2.16

The reported value for QTSAFARQPRDELERARVSCTIIF [V16A] in terms of protein stability index is 2.06

Quick note, protein stability index for QTSAFARQPRDELERVRVSCTIIP [F24P] landed at 2.78

Noted for QMSAFARQPRDELERVRVSCTIIF [T2M] : its protein stability index reads 1.89

Per the records, this variant ( QTSAFARQFRDELERVRVSCTIIF [P9F] ) has protein stability index equal to 2.38

Given item QTSAFCRQPRDELERVRVSCTIIF [A6C] , the value recorded as its protein stability index is 3.04
